# System: MOLT-4
# assayName: NCI tumour cell line growth inhibition, 48 h
Active and inactive are the calls of the source. No stated cut-off is given here; in the data, active = GI50 up to about 1.1 µM and inactive = higher.
Assignment: determine reported GI50 for the given compounds.

-- ask May I ask what GI50 has been recorded for CC(C)(C)OC(=O)N1CC(CCl)c2ccc(O)cc21 (stereo not drawn) ?
-- reply 1.3 µM (inactive)

-- ask May I ask what GI50 has been recorded for CC(=O)Oc1ccc2c(c1)c1c(=O)oc(N(C)C)nc1n2Cc1ccccc1 ?
-- reply 34 µM (inactive)

-- ask May I ask what GI50 has been recorded for C=CC(Cl)(CBr)CCC(Br)C(C)(C)Cl (stereo not drawn) ?
-- reply 3.23 µM (inactive)

-- ask May I ask what GI50 has been recorded for CN(C)c1ccc(/C=C(\NC(=O)c2ccccc2)C2NC(Cc3c[nH]c4ccccc34)C(=O)O2)cc1 (stereo not drawn) ?
-- reply 16.6 µM (inactive)

-- ask May I ask what GI50 has been recorded for COc1ccc(CC(N)=O)cc1OC ?
-- reply > 1250 µM (inactive)

-- ask May I ask what GI50 has been recorded for CN(C)CCNC(=O)c1cccc2[nH]c(-c3ccccn3)nc12 ?
-- reply 20.7 µM (inactive)

-- ask May I ask what GI50 has been recorded for COC(=O)c1sc2c(c1C(=O)OC)/C(=N/C(C)(C)C)S/C2=N\C(C)(C)C ?
-- reply 15.1 µM (inactive)

-- ask May I ask what GI50 has been recorded for CO[C@]12C[C@H](CNC(=O)c3cc(Br)c(Br)[nH]3)O[C@H]1NC(=O)N2 ?
-- reply > 100 µM (inactive)

---

# Test system: BT-549
# assayName: NCI tumour cell line growth inhibition, 48 h
The source made the active and inactive calls. Cut-off read from the data, not from the text of the source: active = GI50 up to about 1.1 µM and inactive = higher.
readoutType: GI50

-- ask May I ask what GI50 has been recorded for CN(C)CCC(C#N)(c1ccccc1)c1ccccc1 ?
-- reply > 100 µM (inactive)

-- ask May I ask what GI50 has been recorded for O=c1ccn(C/C=C/c2ccccc2)c(=S)n1C/C=C/c1ccccc1 ?
-- reply 68.2 µM (inactive)

-- ask May I ask what GI50 has been recorded for CCC(c1nc2ccccc2c(=O)n1NC(=O)C(C)(C)C)C1(O)CCCCC1 (centres undefined) ?
-- reply > 100 µM (inactive)

-- ask May I ask what GI50 has been recorded for c1ccc2c[n+](CCCCCCCCCC[n+]3ccc4ccccc4c3)ccc2c1 ?
-- reply 2.11 µM (inactive)

---

# Test system: COLO 205
# assayName: NCI tumour cell line growth inhibition, 48 h
Calls of active or inactive are those of the source. No stated cut-off is given here; in the data, active = GI50 up to about 1.1 µM and inactive = higher. Non-standard residues stand in square brackets, D forms with d. Residues, ends and D or L forms follow the SMILES beside them. ξ: configuration not given here. *: point of attachment. NMeY = CN[C@@H](Cc1ccc(O)cc1)C(=O)O; Cbz = O=C(OCc1ccccc1)*; ξA = CC(N)C(=O)O
readoutType: GI50

-- ask Hi! What's the reported GI50 for CN1CC(c2ccccc2)C(O)(C2(c3ccccc3)CN(C)CC(c3ccccc3)C2=O)C(c2ccccc2)C1 (stereo unspecified) on COLO 205?
-- reply 93.3 µM (inactive)

-- ask Hi! What's the reported GI50 for CC(C)(C)NC1=NC(C(F)(F)F)(C(F)(F)F)NC(=O)N1 on COLO 205?
-- reply > 10 µM (inactive)

-- ask Hi! What's the reported GI50 for C=C(CCOC)CCC1CCCCC(CN(C)C)C1=O (stereo unspecified) on COLO 205?
-- reply > 100 µM (inactive)

-- ask Hi! What's the reported GI50 for CCCC(O)c1cn(C(NC(=O)c2ccccc2)P(=O)(OCC)OCC)nn1 (stereo unspecified) on COLO 205?
-- reply > 100 µM (inactive)

-- ask Hi! What's the reported GI50 for CCN(CC)CCNC(=O)c1cc2cc(NC(=O)c3cc4cc(NC(=O)c5cc6cc([N+](=O)[O-])ccc6[nH]5)ccc4[nH]3)ccc2[nH]1 on COLO 205?
-- reply > 100 µM (inactive)

-- ask Hi! What's the reported GI50 for COc1ccc(C[C@@H](C(=O)NCC(N)=O)N(C)C(=O)[C@@H]2CCCN2C(=O)[C@H](CC(C)C)NC(=O)C(C)NC(=O)OCc2ccccc2)cc1 (stereo partly specified) (Cbz-[ξA]LP[NMeY](Me)G-NH2) on COLO 205?
-- reply > 100 µM (inactive)

-- ask Hi! What's the reported GI50 for CC(=O)OC12c3ccccc3C(c3ccccc31)C1C(=O)N(Nc3ccccc3)C(=O)C12 (stereo unspecified) on COLO 205?
-- reply > 100 µM (inactive)

-- ask Hi! What's the reported GI50 for COc1ccccc1C[C@@H]1OC2(C=CC(=O)CC2SC(=O)c2ccccc2)O[C@H]1Cc1ccccc1OC (stereo partly specified) on COLO 205?
-- reply 1.69 µM (inactive)

-- ask Hi! What's the reported GI50 for COC(=O)c1sc2c(c1C(=O)OC)/C(=N/C(C)(C)C)S/C2=N\C(C)(C)C on COLO 205?
-- reply 17.4 µM (inactive)

-- ask Hi! What's the reported GI50 for COc1ccccc1NCc1cccc2c(=O)c3ccc(Cl)cc3oc12 on COLO 205?
-- reply 56.9 µM (inactive)

-- ask Hi! What's the reported GI50 for OC1(c2ccc(Cl)cc2)c2ccc(CN3CCCC3)cc2C2=NCCN21 (stereo unspecified) on COLO 205?
-- reply 10.8 µM (inactive)

-- ask Hi! What's the reported GI50 for CC[C@@]1(CCC(=O)NCCc2c[nH]c3ccccc23)CCC(=O)N2CCc3c([nH]c4ccccc34)[C@H]21 on COLO 205?
-- reply 24.2 µM (inactive)

-- ask Hi! What's the reported GI50 for C=C(CCC=C(C)C)C1CC=C(C)CC1 (stereo unspecified) on COLO 205?
-- reply 26.4 µM (inactive)

-- ask Hi! What's the reported GI50 for CCOC(=O)[C@H](Cc1ccc(O)cc1)/N=C1/[C@H]2CCC[C@]1(O)[C@@](C)([N+](=O)[O-])C2 on COLO 205?
-- reply > 100 µM (inactive)

-- ask Hi! What's the reported GI50 for CCOC(=O)NC(OCCN(C)C)(C(F)(F)F)C(F)(F)F on COLO 205?
-- reply > 100 µM (inactive)

-- ask Hi! What's the reported GI50 for COc1cc2c3c(c1OC)-c1cc4c(cc1CC3(C#N)N(C(=O)c1ccccc1)CC2)OCO4 (stereo unspecified) on COLO 205?
-- reply > 100 µM (inactive)

-- ask Hi! What's the reported GI50 for N/C(=N\O)N/N=C/c1cc(Br)cc(Br)c1O on COLO 205?
-- reply 13 µM (inactive)

-- ask Hi! What's the reported GI50 for O=C(O)c1ccccc1Sc1ccc(C=C2NC(=S)N(c3ccccc3)C2=O)s1 on COLO 205?
-- reply 54.7 µM (inactive)

-- ask Hi! What's the reported GI50 for C[C@]12CC[C@H]3[C@@H](CCC4=CC(=O)CC[C@@H]43)[C@@H]1CC[C@@H]2OC1(O)C(=O)c2ccccc2C1=O on COLO 205?
-- reply 24.4 µM (inactive)

-- ask Hi! What's the reported GI50 for O=C1c2ccsc2-c2cccc3cccc1c23.O=C1c2sccc2-c2cccc3cccc1c23 on COLO 205?
-- reply 2.33 µM (inactive)

-- ask Hi! What's the reported GI50 for NNC(=O)CNC(=O)CSc1nnc(COc2ccc(Cl)cc2)n1-c1ccccc1 on COLO 205?
-- reply > 100 µM (inactive)

---

# Tested on: HOP-62
# assayName: NCI tumour cell line growth inhibition, 48 h
The source made the active and inactive calls. No stated cut-off is given here; in the data, active = GI50 up to about 1.1 µM and inactive = higher.
Reply using exactly one outcome from active, inactive

-- ask Hi team, can someone confirm the assay call for CC(C)OC(=S)Nc1ccc(Cl)c(/C=N/OC(C)(C)C)c1 ?
-- reply inactive

-- ask Hi team, can someone confirm the assay call for CN(C)C(=S)/N=c1\sn(C)/c(=N\C(=S)N(C)C)n1C ?
-- reply inactive

-- ask Hi team, can someone confirm the assay call for CSc1c(C)[n+]([O-])c2cc(Cl)c(Cl)cc2[n+]1[O-] ?
-- reply inactive

-- ask Hi team, can someone confirm the assay call for CCCCCCCCCCCCCCCC(=O)NCC(OCC)OCC ?
-- reply inactive

-- ask Hi team, can someone confirm the assay call for CC1=C(/C=C/C(C)=C/C=C/C(C)=C/CO)C(C)(C)CCC1 ?
-- reply inactive

-- ask Hi team, can someone confirm the assay call for COC(=O)[C@H]1COC(=S)N1C(=O)[C@@H](C)[C@H](O)C(C)C ?
-- reply inactive

-- ask Hi team, can someone confirm the assay call for Cc1ccsc1/C=N/Nc1cc(C)c2cccc(C)c2n1 ?
-- reply inactive

-- ask Hi team, can someone confirm the assay call for CC(C)C1=C(Cc2ccccc2)C(=O)O/C1=C\c1cc(Cl)c(O)c(Cl)c1 ?
-- reply inactive

-- ask Hi team, can someone confirm the assay call for Cc1ccc(/N=N/C(=N/NC(=O)c2cc(Cl)ccc2C(=O)c2ccccc2)c2ccc(N(CCC#N)CCC#N)cc2C)cc1 ?
-- reply inactive

-- ask Hi team, can someone confirm the assay call for C[C@@H]1CC[C@@H]2[C@@H](C1)O[C@@H]([C@@H](C)OCc1ccccc1)SC2(C)C ?
-- reply inactive

-- ask Hi team, can someone confirm the assay call for CC1OC(OC2CC(O)(C(=O)CO)Cc3c(O)c4c(c(O)c32)C(=O)c2ccccc2C4=O)CC(N)C1O (configuration not stated) ?
-- reply active

-- ask Hi team, can someone confirm the assay call for O=S1(=O)OCCOS(=O)(=O)C1S(=O)(=O)c1cccc2ccccc12 ?
-- reply inactive

-- ask Hi team, can someone confirm the assay call for COc1cc2nc(-c3ccccc3F)nc(O)c2cc1OC ?
-- reply inactive

-- ask Hi team, can someone confirm the assay call for CCCCCCCCCCCCCCCCNC(=O)/C(O)=C/C(=O)c1ccc(C)cc1 ?
-- reply inactive

-- ask Hi team, can someone confirm the assay call for CCOP(=O)(OCC)/C(C#N)=C/c1cccn1N(C)C ?
-- reply inactive

-- ask Hi team, can someone confirm the assay call for CC(=O)OCCOCNC(=S)N/N=C/c1ccc([N+](=O)[O-])o1 ?
-- reply inactive

-- ask Hi team, can someone confirm the assay call for CC(C)OC(=O)Nc1cccc(Cl)c1 ?
-- reply inactive
